Cited source for all entries: paper PMC6687188

# collection of MEAN CpLDH INHIBITION (%) values tested on recombinant CpLDH protein (Cryptosporidium parvum, UniProt Q9GT92, F198L/K295E/R251K)
Note: a bare number is incomplete; add the unit.

smilesStr | MEAN CpLDH INHIBITION (%)
COC(=O)[C@@H]1[C@H](O)[C@H](C)[C@H](O)[C@H](C)/C=C\C=C(/C)C(=O)Nc2c(C)c(OC(C)=O)c3c(c2O)C(=O)C(C)=C2OCOC(=C23)/C(C)=C/[C@@](C)(O)[C@H](O)[C@@H](C)[C@H]1OC(C)=O | -35.58%
CC(=O)OC[C@H]1O[C@@H](NC(=O)N(CCCl)N=O)[C@H](OC(C)=O)[C@@H](OC(C)=O)[C@@H]1OC(C)=O | -45.30%

Let us move to another entry and its MEAN CpLDH INHIBITION (%).
What the record says about O=C1c2ccccc2C(=O)c2sc(Nc3ccc(Cl)c(Cl)c3)nc21 : MEAN CpLDH INHIBITION (%) is -0.12%

* * *

Give MEAN CpLDH INHIBITION (%) for every item shown.
- assaySystem: recombinant CpLDH protein (Cryptosporidium parvum, UniProt Q9GT92, F198L/K295E/R251K)

compound | result
CC(=O)[O][Hg][c]1c(C)c(C)c(C)c(C)c1C | -60.94%

Hi there! I need MEAN CpLDH INHIBITION (%) for each item below, if you can.
1. CCOC(C)C(C=NNC(N)=S)=NNC(N)=S (stereo not drawn)
2. CCC1CN2CCc3cc(OC)c(OC)cc3C2CC1CC1c2cc(OC)c(OC)cc2CCN1C(=O)C1CCCN1C(=O)OCc1ccccc1 (stereo not drawn)
3. O=[N+]([O-])c1cc(C(F)(F)F)cc([N+](=O)[O-])c1CCl
4. Cc1ccccc1NC(=O)/C=N/O
5. O=C(O)c1ccc(Nc2c3ccccc3nc3ccccc23)cc1.[Na+]
6. CC1=Nc2ccccc2/C1=C\c1c(C)[nH]c2ccccc12
7. O=C1Oc2ccccc2C(=O)/C1=C1\C=C(c2ccccc2)SS1
8. Cc1ccc2[c](c1)[Sn]([c]1ccccc1)([c]1ccccc1)[c]1cc(C)ccc1N2C

1: 10.05%; 2: -105.50%; 3: -26.97%; 4: -116.71%; 5: -28.09%; 6: -6.97%; 7: -15.46%; 8: -56.74%

* * *

# collection of MEAN CpLDH INHIBITION (%) values tested on recombinant CpLDH protein (Cryptosporidium parvum, UniProt Q9GT92, F198L/K295E/R251K)
Note: a bare number is incomplete; add the unit.

Please review the entries below; each comes with its answer.
molecule | assaySystem | MEAN CpLDH INHIBITION (%)
NC1=C(Br)C(=O)c2ncccc2C1=O [NSC105808] | recombinant CpLDH protein (Cryptosporidium parvum, UniProt Q9GT92, F198L/K295E/R251K) | -67.00%
COc1ccc(/C=C2\Cc3ccccc3C2=O)cc1OC [NSC643174] | recombinant CpLDH protein (Cryptosporidium parvum, UniProt Q9GT92, F198L/K295E/R251K) | -15.39%
Cc1ccc(S(=O)(=O)N2CCSCCSCCSCCSCC2)cc1 [NSC650792] | recombinant CpLDH protein (Cryptosporidium parvum, UniProt Q9GT92, F198L/K295E/R251K) | -46.61%
C=C1C(=O)O[C@H]2/C=C(/C)C(=O)C[C@@H]3OC(C)(C)O[C@@]3(C)C[C@H](OC(=O)/C(C)=C\C)[C@H]12 [NSC329696] | recombinant CpLDH protein (Cryptosporidium parvum, UniProt Q9GT92, F198L/K295E/R251K) | -30.73%

Hi there! I need MEAN CpLDH INHIBITION (%) for each item below, if you can.
1. N#C/C(=C\c1ccc2ccccc2c1)C(=O)c1ccccc1 [NSC643186]
2. O=C(CC1(O)C(=O)Nc2c(Cl)cc(Cl)cc21)c1ccc([N+](=O)[O-])cc1 (stereo not drawn) [NSC635326]
3. CC(=O)[O][Hg].c1ccc2c(c1)ccc1ccccc12 [NSC534]

1. -12.83%
2. -38.78%
3. -63.87%

Hi there! I need MEAN CpLDH INHIBITION (%) for each item below, if you can.
1. O=C1C=CC(CC(=O)c2ccc3ccccc3c2)O1 (stereo not drawn) [NSC634650]
2. Nc1ccc2nc3ccc(=O)cc-3n(-c3ccccc3)c2c1 [NSC31702]
3. CC(C)[C@@H](C)/C=C/[C@@H](C)[C@H]1CC[C@H]2C3=CC=C4C[C@@H](O)CC[C@]4(C)[C@H]3CC[C@]12C [NSC62791]
4. COc1ccc(NC(=O)CC(=O)N2N=C(C)C(N=Nc3ccc(S(=O)(=O)c4ccc(N=NC5C(=O)N(C(=O)CC(=O)Nc6ccc(OC)cc6)N=C5C)cc4)cc3)C2=O)cc1 (stereo not drawn) [NSC677392]

1. -31.23%
2. -41.86%
3. -22.35%
4. -119.10%

Hi there! I need MEAN CpLDH INHIBITION (%) for each item below, if you can.
1. CC(=O)Nc1ccc(-c2nc3ccccc3s2)cc1 [NSC33006]
2. O=C1c2ccccc2C(=O)c2c(O)c(NCCNCCO)cc(O)c21 [NSC316157]
3. O=C(c1ccccc1)C(c1ccccc1)C1(O)C(=O)Nc2c(Cl)cc(Cl)cc21 (stereo not drawn) [NSC635312]
4. O=C(Nc1ccc(Sc2ccc(N=Nc3c(O)c(S(=O)(=O)O)cc4cc(S(=O)(=O)O)ccc34)cc2)cc1)c1ccc(N=Nc2c(O)ccc3c(S(=O)(=O)O)cc(S(=O)(=O)O)cc23)cc1 [NSC76027]
5. Nc1nncs1 [NSC4728]
6. CN(C)c1ccc(/C=c2/sc3nc(=O)c(-c4ccccc4NC(=O)C(F)(F)F)nn3c2=O)cc1 [NSC623095]

1: 13.74%; 2: -4.71%; 3: -41.63%; 4: -85.04%; 5: -23.83%; 6: -151.18%

Hi there! I need MEAN CpLDH INHIBITION (%) for each item below, if you can.
1. O=C1c2ccccc2C(=O)c2c(O)c(O)cc(O)c21 [NSC10447]
2. COC1=C(C)C(=O)C2=C(C1=O)C(CO)N1C(C#N)C3CC4C(C1C2N1CCOC41)N3C (stereo not drawn) [NSC349644]
3. Cc1cc(C)c(NC(=O)/C=C/c2ccccc2)c(C)c1 [NSC191384]
4. O=C(N=Nc1c(O)[nH]c2c(Cl)cc(Cl)cc12)c1ccccc1O [NSC320864]

["39.07%", "-64.47%", "-34.30%", "-26.08%"]

Hi there! I need MEAN CpLDH INHIBITION (%) for each item below, if you can.
1. Cc1ccc([N+](=O)[O-])cc1NC(=O)c1cccc([N+](=O)[O-])c1O [NSC79451]
2. C/C(=N\NC(=S)N1CCN(C2CCCCCC2)CC1)c1ccccn1 [NSC376265]
3. CC(C)=CCC1=C(O)c2ccccc2C(=O)C1=O [NSC11905]
4. Cc1ccc2c(sc(-c3ccc4c(c3)sc(-c3ccc(N(C)C)cc3)[n+]4C)[n+]2C)c1S(=O)(=O)[O-].[Cl-] [NSC71948]
5. CC(=O)/C(C)=N/NC(=O)c1ccccc1O [NSC635441]

1: -40.98%; 2: -34.26%; 3: -39.26%; 4: 60.47%; 5: -52.88%

Hi there! I need MEAN CpLDH INHIBITION (%) for each item below, if you can.
1. CC(=O)c1ccc(Oc2ccc(/C(C)=N\N=C(N)N)cc2)cc1.O=[N+]([O-])O [NSC97911]
2. C[C@@H](N)C(=O)NC(CO)C(O)C(N)C=O.Cl (stereo partly drawn) [NSC278619]

1. -11.97%
2. -43.32%

Hi there! I need MEAN CpLDH INHIBITION (%) for each item below, if you can.
1. Cl.NC1(CCNC(=O)c2ccccc2)CCN(C(=O)c2ccccc2)CC1 [NSC680509]
2. CC[C@@]1(O)C[C@H](O[C@H]2C[C@H](N(C)C)[C@H](O[C@H]3C[C@@H]4O[C@H]5CC(=O)[C@H](C)O[C@H]5O[C@@H]4[C@H](C)O3)[C@H](C)O2)c2c(cc3c(c2O)C(=O)c2c(O)ccc(O)c2C3=O)[C@H]1C(=O)OC [NSC243023]
3. COc1cc(-c2cc(=O)c3c(OC)c(OC)c(OC)c(OC)c3o2)cc(OC)c1OC [NSC67580]

1. -41.56%
2. -140.35%
3. -41.90%

Hi there! I need MEAN CpLDH INHIBITION (%) for each item below, if you can.
1. CC(C)C[C@H]1C(=O)N2CCC[C@H]2[C@]2(O)O[C@](NC(=O)[C@@H]3C=C4c5cccc6[nH]c(Br)c(c56)C[C@H]4N(C)C3)(C(C)C)C(=O)N12.CS(=O)(=O)O [NSC169774]
2. [Cl][Pt+2][Cl].[NH-]C1CCCCC1[NH-] (stereo not drawn) [NSC265459]

1. -107.83%
2. -11.78%
